Value source: paper PMC7180456

- System: leukemia cells of HL-60 line
- TEST SUMMARY: Cytotoxicity, trypan blue exclusion assay, 24 h
- Type: cell-based
- RECORDED CONDITIONS: Homo sapiens, Table 2, trypan blue, 24 h, M ± SD, read-out: LC50 Values of Compounds for Cell Line, HL-60
Entries whose CC50 is below 8 µM take 1; entries at or above 8 µM take -1.

COMPOUND: CN(C)c1nc2c(Br)c(Br)c(Br)c(Br)c2n1CCc1cn(CCC(=O)NO)nn1
ASSIGNED CATEGORY: -1
--
COMPOUND: CN(C)c1nc2c(Br)c(Br)c(Br)c(Br)c2n1CCCCCCCC(=O)NO [Compound 11d]
ASSIGNED CATEGORY: 1
--
COMPOUND: O=C(NO)c1ccc(Cn2nc3c(Br)c(Br)c(Br)c(Br)c3n2)cc1 [Compound 15a]
ASSIGNED CATEGORY: -1
--
COMPOUND: CN(C)c1nc2c(Br)c(Br)c(Br)c(Br)c2n1CCCCCC(=O)NO [Compound 11b]
ASSIGNED CATEGORY: 1
--
COMPOUND: CN(C)c1nc2c(Br)c(Br)c(Br)c(Br)c2n1CCCCCCC(=O)NO [Compound 11c]
ASSIGNED CATEGORY: 1
